B1: TRIM15 (parent)
chain: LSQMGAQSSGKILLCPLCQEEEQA

variants of: B1; test: protein stability index of a GFP-peptide fusion (GPS, HEK-293T) (PSI 1-6); higher = more stable; conditions: c terminus: a fixed tail appended;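 note: lentivirally expressed fusions sorted by FACS into six bins by GFP to DsRed ratio, PSI derived from sequencing read proportions per bin multiplied by bin number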
This listing pairs variants with measured protein stability index.

Inquiry: If you can, please state the reported protein stability index value of C18W .
Reply text: 4.59

Inquiry: Data request, read-out protein stability index, for L1Y
Reply text: 2.65

Inquiry: Would you mind telling me what protein stability index value was observed for C15D ?
Reply text: 5.58

Inquiry: Using the record for A6P , report its protein stability index.
Reply text: 3.8

Inquiry: Give its protein stability index value. Item: S8T
Reply text: 3.55

Inquiry: Reported protein stability index, variant C15G : ____
Reply text: 5.51

Inquiry: Which protein stability index value is on record for G5I ?
Reply text: 2.98
